biological target: Nucleoprotein (Lymphocytic choriomeningitis virus (strain Armstrong)) (UniProt P09992); test: qHTS for Inhibitors of the Functional Ribonucleoprotein Complex (vRNP) of Lymphocytic Choriomeningitis Arenaviruses (LCMV): LCMV Primary Screen - GLuc reporter signal (AID 1347086); conditions: LCMV minigenome vRNP cell assay, Gaussia luciferase reporter; series mostly up to 57.5 µM; also: % is scaled to controls: 0 for no effect and ±100 for the full control effect; nearly all actives have a fitted effect of over 70% in size
Sequence (P09992 whole entry, looked up): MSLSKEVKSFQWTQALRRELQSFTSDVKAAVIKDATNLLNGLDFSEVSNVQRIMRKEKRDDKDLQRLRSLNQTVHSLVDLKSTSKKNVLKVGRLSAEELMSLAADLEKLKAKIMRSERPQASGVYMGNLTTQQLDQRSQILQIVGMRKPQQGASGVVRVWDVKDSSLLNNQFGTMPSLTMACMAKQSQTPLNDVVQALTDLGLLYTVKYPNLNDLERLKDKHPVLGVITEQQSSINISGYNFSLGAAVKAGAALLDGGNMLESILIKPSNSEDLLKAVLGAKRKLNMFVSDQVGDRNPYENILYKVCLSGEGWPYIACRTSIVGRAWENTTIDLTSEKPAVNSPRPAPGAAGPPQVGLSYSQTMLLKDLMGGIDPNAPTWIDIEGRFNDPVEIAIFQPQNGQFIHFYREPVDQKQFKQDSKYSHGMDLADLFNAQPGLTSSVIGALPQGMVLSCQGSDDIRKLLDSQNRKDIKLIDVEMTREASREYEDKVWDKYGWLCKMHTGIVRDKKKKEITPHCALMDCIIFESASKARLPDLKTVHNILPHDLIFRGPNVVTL
Inconclusive results are not listed. Calls of active or inactive are those of the source. Calls follow the shape of the full dose curve.
Assay Readout: outcome

Study these solved cases before continuing.
CC(N[C@H]1C[C@H]1c1ccccc1)c1ccc2c(c1)OCCO2 (stereo partly drawn)    inactive
O=C(NCC1CCOCC1)c1cnc(Nc2ccc(Cl)cc2Cl)nc1C(F)(F)F    inactive
CN[C@@H](C)C(=O)N[C@H]1CCCC[C@H]2CC[C@@H](C(=O)N[C@@H](c3ccccc3)c3cn(CCCCc4ccc(CCCCn5cc([C@@H](NC(=O)[C@@H]6CC[C@@H]7CCCC[C@H](NC(=O)[C@H](C)NC)C(=O)N76)c6ccccc6)nn5)cc4)nn3)N2C1=O    inactive
CC(C)(C)c1cc(NC(=O)Nc2ccc(-c3cn4c(n3)sc3cc(OCCN5CCOCC5)ccc34)cc2)no1    inactive
Nc1ccc(S(=O)(=O)Nc2ccccc2)cc1    inactive
O=[N+]([O-])/N=C1\NCCN1Cc1ccc(Cl)nc1    inactive

Hey, can you go through the list below and give me outcome for every item?
1. COc1ccc(C2=N[C@H](c3ccc(Cl)cc3)[C@H](c3ccc(Cl)cc3)N2C(=O)N2CCNC(=O)C2)c(OC(C)C)c1
2. CCN1CCN(Cc2ccc(-c3cc4c(N[C@H](C)c5ccccc5)ncnc4[nH]3)cc2)CC1

1: inactive; 2: inactive

====

experiment: Quantitative High-Throughput drug screen in 47 multiple myeloma cell lines against the NCATS MIPE library collection: ARP1_JJKsccF8 cell viability assay (AID 1918928; also: nearly all actives have a fitted effect of over 40% in size;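 as to viability: 100% = DMSO only wells and 0% = medium only wells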); conditions: ARP1 myeloma cells viability, CellTiter-Glo ATP, 48 h; series mostly up to 45.8 µM
Inconclusive results are not listed. Calls of active or inactive are those of the source. The call rests on the fitted dose curve; in most records, active means well fitted cell-killing curve with a large enough effect; inconclusive means small, poorly fitted or top-dose-only effect, or effect the other way; inactive means no such curve, though single readings can be large or run the other way.
Select the matching outcome among yes = active, no = inactive

Identify the outcome logged in this assay for the compound shown: "CN1CCN(c2ccc([N+](=O)[O-])c3no[n+]([O-])c23)CC1"
yes

Identify the outcome logged in this assay for the compound shown: "CC1=C(O)C(=O)C=C2C1=CC=C1[C@@]2(C)CC[C@@]2(C)[C@@H]3C[C@](C)(C(=O)O)CC[C@]3(C)CC[C@]12C"
yes

Identify the outcome logged in this assay for the compound shown: "CC[C@@H](C(N)=O)N1CCCC1=O"
no

Identify the outcome logged in this assay for the compound shown: "C#C[C@]1(O)C=C[C@@H]2[C@@H]3CCC4=CC(=O)CC[C@@H]4[C@H]3CC[C@@]21CC"
no

Identify the outcome logged in this assay for the compound shown: "COC[C@H]1OC(=O)c2coc3c2[C@@]1(C)C1=C(C3=O)[C@@H]2CC[C@H](O)[C@@]2(C)C[C@@H]1OC(C)=O"
yes

Identify the outcome logged in this assay for the compound shown: "C[C@@H]1[C@H](O)[C@@H](C)C=CC=CCCC=CC=CC=CC=C[C@H](O[C@H]2O[C@@H](C)[C@H](O)[C@@H](N)[C@@H]2O)CC2O[C@](O)(C[C@@H](O)[C@H](O)CC[C@@H](O)C[C@@H](O)C[C@@H](O)CC(=O)O[C@H]1C)C[C@H](O)[C@H]2C(=O)O"
no

Identify the outcome logged in this assay for the compound shown: C#CC1(O)CCC2C3CCC4=CC(=O)CCC4(C)C3CCC21C (stereo not given)
no

Identify the outcome logged in this assay for the compound shown: "Cc1ccccc1-n1c(Cn2cnc3c(N)ncnc32)nc2cccc(C)c2c1=O"
yes

Identify the outcome logged in this assay for the compound shown: "O=C(Oc1ccc([N+](=O)[O-])cc1)N1CCC(C(O)(c2ccc3c(c2)OCO3)c2ccc3c(c2)OCO3)CC1"
no

Identify the outcome logged in this assay for the compound shown: "Cc1nc(-c2ccc(-c3ccc(C(=O)N4CCc5cc6c(cc54)C4(CCN(C)CC4)CO6)cc3)c(C)c2)no1"
no

Identify the outcome logged in this assay for the compound shown: "O=C(Nc1ccncc1)C(=O)c1cn(Cc2ccc(Cl)cc2)c2ccccc12"
yes

Identify the outcome logged in this assay for the compound shown: "C[C@@]12OC(=O)[C@]1([C@@H](O)[C@@H]1C=CCCC1)NC(=O)[C@H]2CCCl"
yes

Identify the outcome logged in this assay for the compound shown: "CC[C@H]1C=CC=CC[C@@H](C)[C@H](O)[C@@](C)(O)C(=O)[C@@H](C)[C@H](O)[C@@H](C)C(=O)[C@@H](C)[C@H](O)[C@@H](C)C=CC(=O)O[C@@H]2[C@@H](C)[C@H](CC1)O[C@]1(CC[C@H](C)[C@H](C[C@@H](C)O)O1)[C@H]2C"
yes

Identify the outcome logged in this assay for the compound shown: COc1ccc2c(c1)[C@]13CCCCC1C(C2)N(C)CC3 (stereo not given in full)
no

Identify the outcome logged in this assay for the compound shown: "CC(C)[C@]12O[C@@H]1[C@@H]1O[C@]13[C@]1(O[C@H]1C[C@@H]1C4=C(CC[C@@]13C)C(=O)OC4)[C@H]2O"
no

====

Provide the reported max response of each item.
Tested on: HEK293
Test: Cytotoxic Profiling of Annotated Libraries Using Quantitative High-Throughput Screening (AID 1296008); also: % is scaled to controls: 0 for no effect and ±100 for the full control effect; nearly all actives have a fitted effect of over 60% in size
Conditions: Five cell lines viability, CellTiter-Glo ATP luminescence, 48-72 h; stronger effect = lower value
Experimental: Cell-based phenotypic screening is a commonly used approach to discover biological pathways, novel drug targets, chemical probes and high-quality hit-to-lead molecules. […] A pintool (Kalypsys) was used to transfer 23 nL of compound solution to the 1536-well assay plates. […] Plates were left at room temperature for 10 min before imaging the ATP-coupled luminescence using a ViewLux microplate imager (PerkinElmer, Waltham, MA).
Inconclusive results are not listed.
One number for each entry, in %.

COC(=O)[C@@H](N)CCCN=C(N)N[N+](=O)[O-]    0.845

Hey, can you go through the list below and give me max response for every item?
1. COc1cc2cc(c1Cl)N(C)C(=O)C[C@H](OC(=O)C(C)C)[C@]1(C)O[C@H]1[C@H](C)[C@@H]1C[C@@](O)(NC(=O)O1)[C@H](OC)C=CC=C(C)C2
2. CSCC[C@@H](NC(=O)[C@@H](Cc1ccccc1)NC(=O)CNC(=O)CNC(=O)[C@@H](N)Cc1ccc(O)cc1)C(=O)O
3. C1=C2CCCN[C@H]2[C@@H]2C[C@H]1[C@@H]1CCCCN1C2
4. CCCC[N+]1(C)[C@H]2CC(OC(=O)[C@H](CO)c3ccccc3)C[C@H]1[C@H]1O[C@H]12 (stereo partly specified)
5. CC(=O)Nc1ccc(OC[C@](C)(O)C(=O)Nc2ccc([N+](=O)[O-])c(C(F)(F)F)c2)cc1
6. CC(C)N[C@@H]1CCn2c(=O)[nH]c3cccc(c32)[C@@H]1O
7. Clc1ccccc1C(c1ccccc1)(c1ccccc1)n1cccn1

1. -91.4
2. 3.52
3. 0.094
4. -1.83
5. -11.2
6. 2.71
7. -5.51

====

assay: qHTS of pediatric cancer cell lines to identify multiple opportunities for drug repurposing: Primary screen for TC32 cells (AID 1347089); details: TC32 Ewing sarcoma viability, CellTiter-Glo luminescence, 48 h; series mostly up to 45.8 µM; also: nearly all actives have a fitted effect of over 60% in size; also: potency is read from the fitted curve at half-maximal effect
Records with an inconclusive call do not appear. Calls of active or inactive are those of the source. Calls come from the whole dose curve; as a rule, active = well fitted cell-killing curve with a large enough effect; inconclusive = small, poorly fitted or top-dose-only effect; inactive = flat fitted curve, though single readings scatter.
Assay Readout: Potency

C[C@@H]1O[C@@H](O[C@@H]2C=C3CC[C@@H]4[C@@H](CC[C@]5(C)[C@H](c6ccc(=O)oc6)CC[C@@]45O)[C@@]3(C)CC2)[C@H](O)[C@H](O)[C@H]1O    0.0415 µM (active)
O=[N+]([O-])c1ncc[nH]1    inactive
CCCCOC(=O)c1ccccc1C(=O)OCc1ccccc1    inactive
CC[C@@H]1[C@@H](C)O[C@@](O)([C@@H](C)[C@H](O)[C@H](C)[C@H]2OC(=O)C=CC=C[C@@H](C)[C@@H]([C@@H](C)[C@@H](O)[C@H](C)[C@@]3(O)C[C@H](O[C@H]4C[C@H](O)[C@H](O)[C@H](C)O4)[C@H](CC)[C@@H](C)O3)OC(=O)C=CC=C[C@@H]2C)C[C@H]1O[C@H]1C[C@H](O)[C@H](O)[C@H](C)O1    18.6 µM (active)

====

experiment: Confirmatory qHTS for activators (rescue) of SARS-CoV-2 Cytopathic Effect (CPE) (AID 1508606); conditions: Vero E6 SARS-CoV-2 CPE rescue, viability luminescence; series mostly up to 20 µM; also: nearly all actives have a fitted effect of over 70% in size
Records with an inconclusive call do not appear. Activity calls are given as the source filed them. The call rests on the fitted dose curve.
Select the matching outcome among 1 (yes) (active), 0 (no) (inactive)

Study these solved cases before continuing.
CC1(N2CCC(n3c([C@@H]4CCCNC4)nc4ccccc43)CC2)CCCCCCC1    1 (yes)
O=C(c1ccc(Nc2nccc(-c3cc4ccccc4s3)n2)cc1)N1CCC(N2CCCC2)CC1    1 (yes)
CN(C)c1ccc(C2Nc3ccc4ccccc4c3C3=C2C(=O)CC(C)(C)C3)cc1Br (centres undefined)    0 (no)

Now for another entry.
Identify the outcome logged in this assay for the compound shown: "CC(C)[C@H]1C(=O)N[C@H](CO)Cc2c[nH]c3cccc(c23)N1C"
1 (yes)
